Answer each item with its documented koff.
assayed.target: T1, human PD-1 (soluble PD-1 protein, R&D Systems) (human, UniProt Q15116 25-170, limits assumed)
T1 construct: the kinetics paragraphs say only 'PD-1' / 'antigen'; also called hPD-1; soluble PD-1 immunogen
T1 sequence (Q15116 25-170 limits assumed): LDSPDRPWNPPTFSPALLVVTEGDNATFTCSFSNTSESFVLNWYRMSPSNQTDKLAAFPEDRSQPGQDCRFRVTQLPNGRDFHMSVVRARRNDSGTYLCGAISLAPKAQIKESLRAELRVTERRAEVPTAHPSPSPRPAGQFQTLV
experiment.summary: array SPR (Carterra), mAb captured, PD-1 as analyte
Hi! Could you send only the number? It should be in s⁻¹, unit omitted.

Reported koff of A4 (antibody, V domains shown, Tested as full-length mAb expressed in CHO cells; also called antibody A4; L4H4) VH: QVQLVQSGAEVKKPGASVKVSCKASGYTFATYGVSWVRQAPGQGLEWMGWISAYSDNINYAQNLQGRVTITTDTSTSTAYMELRSLRSDDTAVYYCARDGSHGDYYYGMDVWGQGTTVTVSS VL: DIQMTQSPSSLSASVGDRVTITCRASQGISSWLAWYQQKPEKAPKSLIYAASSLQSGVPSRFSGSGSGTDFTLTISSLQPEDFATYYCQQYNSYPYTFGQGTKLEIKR : 0.00025

Reported koff of A5 (antibody, V domains shown, Tested as full-length mAb expressed in CHO cells; also called antibody A5; L5H5) VH: QVQLVESGGGVVQPGRSLRLSCAASGFTFSNYGTHWVRQAPGKGLEWVAVIWYDGSNKYYADSVKGRFTISRDNSKNTLYLQMNSLRAEDTAVYYCARDRIYCSSTRCIGFGYYYYGMDVWGQGTTVTVSS VL: AIQLTQSPSSLSASVGDRVTITCRASQGISSALAWYQQKPGKAPKLLIYDASSLESGVPSRFSGSGSGTDFTLTISSLQPEDFATYYCQQFNNYPWTFGQGTKVEIKR : 0.00023

Reported koff of A10 (antibody, V domains shown, Tested as full-length mAb expressed in CHO cells; also called antibody A10; L10H10) VH: QVQLVQSGAEVKKPGASVKVSCKASGYTFAIYGISWVRQAPGQGLEWMGWISAYSDNSNYAQKLQGRVTMTTDTSTSTAYMELRSLRSDDTAVYYCVRDGSHGDYYYGMDVWGQGTTVTVSS VL: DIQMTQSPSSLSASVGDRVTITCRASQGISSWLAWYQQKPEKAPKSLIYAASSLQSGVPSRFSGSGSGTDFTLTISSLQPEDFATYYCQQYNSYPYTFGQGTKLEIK : 6.9e-05

Reported koff of A1 (antibody, V domains shown, Tested as full-length mAb expressed in CHO cells; also called antibody A1; L1H1) VH: QVQLVESGGGVVQPGRSLRLSCAASGFTFSNYGMHWVRQAPGKGLEWVAVIWYDGSNKYYTDSVKGRFTISRDNSKNTLYLQMNSLRAEDTAVYYCAGGGNYYGDYWGQGTLVTVSS VL: DIQMTQSPSSLSASVGDRVTITCRASQGIRNDLGWYQQKPGKAPKRLIYVASSLQSGVPSRFSGSGSGTEFTLTISSLQPEDFATYYCLQHNSYPLTFGGGTKVEIKR : 2.6e-05

Origin of measurements: patent US20220064302A1
